Exercise: for every item that follows, state its recorded polymerase ribozyme fitness (log ratio).
B1: TPR 5TU (parent)
chain: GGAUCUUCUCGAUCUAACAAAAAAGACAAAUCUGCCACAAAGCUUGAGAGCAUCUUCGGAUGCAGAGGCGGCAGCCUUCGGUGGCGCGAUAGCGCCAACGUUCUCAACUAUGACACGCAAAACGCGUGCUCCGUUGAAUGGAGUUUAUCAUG

variants of: B1; assay: polymerase ribozyme fitness, log enrichment relative to wild type (log ratio); higher = more active; in vitro selection for triplet polymerase activity
Fewer inactive variants are shown than the library holds.
Numbers only.

The cases that follow already have their polymerase ribozyme fitness (log ratio) on record.
G100U U101G    -3.34
C96G A142C    -1.82
U4G C54G C95G    -3.63
A17G G59U G80A C85A    -0.447
G59A C116U    -0.293

// each variant listed below needs its polymerase ribozyme fitness (log ratio)
1. G34U G94A
2. C32A
3. A121C G128C
4. U13C A52G U102C C118G
5. G25C G50U C96U A97U
6. A24U A60G C85U A97C C129U

Output line:
-2.37
-2.96
-2.44
-3.18
-3.33
-0.602

// each variant listed below needs its polymerase ribozyme fitness (log ratio)
1. A28U C35U
2. A16C U55A A106G
3. A60G U134G
4. A3U U82C U101A
5. U55G G83U
6. G50A C85G
7. U13A C93A

Output line:
1. -4.12
2. -1.85
3. -2.14
4. -0.128
5. -0.389
6. -3.34
7. -3.28

// each variant listed below needs its polymerase ribozyme fitness (log ratio)
1. C14A U55A
2. A19U C85G G92U C123U
3. A37U U56A C99U G143U
4. C85A C95G A115G
5. A19U C76U C131U
6. A73G A107U

Output line:
1. -1.9
2. -2.54
3. -3.88
4. -3.81
5. 0.231
6. -4.1

// each variant listed below needs its polymerase ribozyme fitness (log ratio)
1. U101A G143C
2. A19G U82G G94A C96U A97U G124U
3. A12C G133C U145A
4. A21G C114U
5. G25U G81A G94U A120U G141C

Output line:
1. -2.08
2. -2.53
3. -1.11
4. -1.69
5. -3.76
